For each record, write down the corresponding growth inhibition.
# Assay Summary: NCI Yeast Anticancer Drug Screen. Data for the CLN2oe strain (AID 163);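 note: 0% = growth of vehicle-only control cultures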
# Experimental Setup: S. cerevisiae CLN2oe strain, at 3.7 µM, stronger effect = higher value
The panel holds about 79,000 compounds, 15% with a hit somewhere; the sample as a whole holds those more often.
Numbers only, in %.

O=C1C(=O)c2ccccc2C=C1[N+](=O)[O-] ... 3
Clc1cccc(C(Nc2nncs2)Nc2nncs2)c1Cl ... -2
Cc1cc(N=Nc2ccc(S(=O)(=O)[O-])cc2)cc(C(=O)[O-])c1[O-].NC1CCCCC1N.[Na+].[Pt+4] ... 21
O=C1C=CC(=C(c2ccccc2)c2ccccc2)c2ccccc21 ... -3
c1ccc(-c2ccnc3c2ccc2c(-c4ccccc4)ccnc23)cc1 ... -20

Could you report growth inhibition for every entry in the following list?
1. COc1cc(C2SCC(=O)N2c2ccc(-c3ccc(-n4c(-c5ccccc5)nc5ccccc5c4=O)cc3)cc2)cc(OC)c1OC (stereo unspecified)
2. CN(C)c1nc2sc3c(c2c(=O)o1)CCCC3

Ans.
1. 7
2. -1

Could you report growth inhibition for every entry in the following list?
1. CC(C)c1ccccc1NC(=O)/C(Cl)=C(\Cl)C(=O)O
2. Fc1ccc(NC(=S)SCc2ccc(Cl)c(Cl)c2)cc1F

Ans.
1. 6
2. -10

Could you report growth inhibition for every entry in the following list?
1. O=C1Nc2ccc(Cl)c(I)c2C1=O
2. O=C(Nc1ccc(Cl)cc1)OCC#CCCl

Ans.
21
-3

----------
# Assay Summary: NCI Yeast Anticancer Drug Screen. Data for the wt2 strain (AID 169);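 note: 0% = growth of vehicle-treated yeast cultures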
# Experimental Setup: S. cerevisiae wt2 strain growth inhibition; at 11.0 µM; stronger effect = higher value
Compounds without any hit were thinned out: in the full panel of roughly 79,000, 15% have a hit.
Readout: growth inhibition (%)
Give bare numbers, in %.

Consider the worked cases shown below.
COc1cc(C2c3cc4c(cc3OC(NNc3ccccc3)C2C)OCO4)cc(OC)c1OC (centres undefined) ... 41
CC1OCC2OC(C)OC(C3C4=C(CC(C)(C)CC4=O)OC4=C3C(=O)CC(C)(C)C4)C2O1 (centres undefined) ... 1
Nc1ccc2c(c1)C(=O)c1cccc(N)c1C2=O ... 19
O=[N+]([O-])c1cccc2nccc(NCCCO)c12 ... -19
S=C(Nc1ccc(Cl)c(Cl)c1)SCc1ccc2c(c1)OCO2 ... 100
Cc1ccc(S(=O)(=O)Oc2cc(Cl)c(Cl)cc2Cl)cc1 ... -14
Cc1cc(CO)c(O)c(CNCc2cc(C)cc(CO)c2O)c1 ... -12
O=C(/C=C\c1ccc(Cl)cc1Cl)c1cccs1 ... -3

# evaluate next
Qu. What does the data say about its growth inhibition? Entry: "C/C(=N/NC(=S)N1CCCCCC1)c1cccc(/C(C)=N\NC(=S)N2CCCCCC2)n1"
Ans. -1

----------
# Assay Summary: NCI Yeast Anticancer Drug Screen. Data for the cln2 rad14 strain (AID 165);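 note: 0% = growth equal to vehicle treated cultures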
# Experimental Setup: S. cerevisiae cln2 rad14 strain, at 50.0 µM (retest, dose inferred, filed as 5.0), stronger effect = higher value
This is part of a sample that, as a whole, favours compounds with a hit. Of some 79,000 tested, about 15% had one in any assay. Calls of active or inactive are those of the source. Rule as the data show it: active = growth inhibition above about 70%; inactive = the rest.
Readout: growth inhibition

Consider the worked cases shown below.
CC(=O)OCCOCNC(=S)N/N=C(\C)c1cnccn1 ... 45% (inactive)
CC(C)/C(Cl)=N\OC(=O)Nc1cccc(Cl)c1 ... 19% (inactive)
COc1ccccc1/C=C1\Sc2scc(-c3cccc([N+](=O)[O-])c3)[n+]2C1=O ... 96% (active)

Could you report growth inhibition for every entry in the following list?
1. O=[n+]1c2ccc(Cl)cc2n([O-])c2ccc(Cl)cc21
2. [N-]=N[N+]#I1OC(C(F)(F)F)(C(F)(F)F)c2ccccc21
3. BrCC[P+](c1ccccc1)(c1ccccc1)c1ccccc1
4. Cc1ccc(-c2ccc(Nc3c4ccccc4nc4ccccc34)cc2)cn1
5. CC1CCN(CCC(=O)c2ccc(Cl)cc2)CC1

Ans.
1. -13% (inactive)
2. 98% (active)
3. 98% (active)
4. 70% (active)
5. 45% (inactive)
